Data origin, for the record: ChEMBL document CHEMBL3596180

Item-by-item account of pKi
SYSTEM: UniProt Q13547
Sequence (Q13547 whole entry): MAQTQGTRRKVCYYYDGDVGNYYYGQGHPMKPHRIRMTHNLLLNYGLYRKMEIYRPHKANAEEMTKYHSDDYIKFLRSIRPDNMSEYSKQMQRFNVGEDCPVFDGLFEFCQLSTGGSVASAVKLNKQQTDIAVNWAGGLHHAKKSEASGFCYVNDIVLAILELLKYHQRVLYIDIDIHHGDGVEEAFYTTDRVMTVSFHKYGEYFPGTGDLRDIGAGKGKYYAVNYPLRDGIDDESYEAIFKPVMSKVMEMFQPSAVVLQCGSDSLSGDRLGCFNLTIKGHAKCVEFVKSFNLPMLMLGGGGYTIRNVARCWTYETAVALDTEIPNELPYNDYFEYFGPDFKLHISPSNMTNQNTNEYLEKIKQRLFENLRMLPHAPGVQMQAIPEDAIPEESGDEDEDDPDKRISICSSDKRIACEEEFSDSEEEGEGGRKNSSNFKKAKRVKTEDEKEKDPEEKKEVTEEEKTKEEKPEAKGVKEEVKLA
pKi: −log10 of the molar value.

MOLECULE | SYSTEM | pKi
O=C(CCCCCCC(=O)Nc1ccc([C@H]2O[C@@H](CSc3nc(-c4ccccc4)c(-c4ccccc4)o3)C[C@@H](c3ccc(CO)cc3)O2)cc1)NO [TUBACIN] | UniProt Q13547 | 6.49
O=C(/C=C/C#Cc1cccc(NS(=O)(=O)c2ccccc2)c1)NO [OXAMFLATIN] | UniProt Q13547 | 8.89

* * *

SYSTEM: Histone deacetylase 7 (Homo sapiens, UniProt Q8WUI4)
Sequence (Q8WUI4 whole entry): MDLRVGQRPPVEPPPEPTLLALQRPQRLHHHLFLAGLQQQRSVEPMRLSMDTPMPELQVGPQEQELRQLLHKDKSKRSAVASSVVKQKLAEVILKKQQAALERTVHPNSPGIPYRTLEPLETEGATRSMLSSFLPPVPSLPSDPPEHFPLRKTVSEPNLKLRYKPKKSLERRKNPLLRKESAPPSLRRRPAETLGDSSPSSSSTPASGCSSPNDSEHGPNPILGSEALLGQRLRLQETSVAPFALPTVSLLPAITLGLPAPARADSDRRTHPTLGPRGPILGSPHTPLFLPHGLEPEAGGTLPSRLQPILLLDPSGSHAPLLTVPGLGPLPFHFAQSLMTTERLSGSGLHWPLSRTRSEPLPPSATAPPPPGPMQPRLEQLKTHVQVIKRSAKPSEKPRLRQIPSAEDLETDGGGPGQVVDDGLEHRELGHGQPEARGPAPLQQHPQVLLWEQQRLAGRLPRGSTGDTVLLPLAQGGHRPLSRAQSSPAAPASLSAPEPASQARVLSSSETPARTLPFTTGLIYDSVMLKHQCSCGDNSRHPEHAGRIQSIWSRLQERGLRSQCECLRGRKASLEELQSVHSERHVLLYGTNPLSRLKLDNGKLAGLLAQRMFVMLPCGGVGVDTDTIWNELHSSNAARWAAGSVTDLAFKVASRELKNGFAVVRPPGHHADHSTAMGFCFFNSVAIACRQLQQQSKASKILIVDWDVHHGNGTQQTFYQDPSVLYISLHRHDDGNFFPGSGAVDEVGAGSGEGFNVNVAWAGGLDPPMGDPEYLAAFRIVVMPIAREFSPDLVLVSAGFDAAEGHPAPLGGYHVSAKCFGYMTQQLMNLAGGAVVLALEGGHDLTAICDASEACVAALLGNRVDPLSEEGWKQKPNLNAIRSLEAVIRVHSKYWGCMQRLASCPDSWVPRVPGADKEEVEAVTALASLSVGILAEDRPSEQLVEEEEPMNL

GIVEN SMILES | Ki / µM
O=C(CCCCCCC(=O)Nc1ccc([C@H]2O[C@@H](CSc3nc(-c4ccccc4)c(-c4ccccc4)o3)C[C@@H](c3ccc(CO)cc3)O2)cc1)NO | 5.43

* * *

METHOD NOTES: Cmax in po dosed human measured under phase 1 trial
Type: ADME, organism-based
Set-up: route oral
TEST PARAMETERS: in vivo
Please respond with fulfilled when measured Cmax is strictly beneath 200 nM, and with not fulfilled in all other cases.

COMPOUND | CLASSIFICATION
CCN(CC)Cc1ccc2cc(COC(=O)Nc3ccc(C(=O)NO)cc3)ccc2c1 [GIVINOSTAT] | not fulfilled
Cc1[nH]c2ccccc2c1CCNCc1ccc(/C=C/C(=O)NO)cc1 [PANOBINOSTAT] | fulfilled
Cn1cc(CNCC2CCN(c3ncc(C(=O)NO)cn3)CC2)c2ccccc21 [QUISINOSTAT] | fulfilled
CCCCc1nc2cc(/C=C/C(=O)NO)ccc2n1CCN(CC)CC [PRACINOSTAT] | not fulfilled
O=C(/C=C/c1cccc(S(=O)(=O)Nc2ccccc2)c1)NO [BELINOSTAT] | not fulfilled
